Cited source for all entries: the supplement of paper PMC10567573

B1: PLAGL1 (parent)
chain: LELGSTEVLLDHLKAHAEEKPPSG

Variants of: B1
Test: protein stability index of a GFP-peptide fusion (GPS, HEK-293T) (PSI 1-6); higher = more stable;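 further: lentivirally expressed fusions sorted by FACS into six bins by GFP to DsRed ratio, PSI derived from sequencing read proportions per bin multiplied by bin number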
Conditions: c terminus: a fixed tail appended
endpoint-label: protein stability index
Please reply with the value in numeric form only.

Retrieve protein stability index measured for LELGSTEVLLDHLKAHAEELPPSG and print it. 3.9

Assign protein stability index to the following record: LELGSTEVLLDHLKAHAEEKPLSG 3.9

Give the reported protein stability index for this variant. LELGSTEVLLDHLKALAEEKPPSG 4.08
